emission maximum values by entry
- Experiment: solvent given as SMILES
- Protocol Conditions: in ClC(Cl)Cl
Assay Readout: emission maximum (nm)

• O=P1(c2ccccc2)C(c2ccc(N(c3ccccc3)c3ccccc3)cc2)=Cc2cc3ccccc3cc21 (centres undefined) = 516
• CCCCCCCCN1c2ccc(C#Cc3cc(C(F)(F)F)cc(C(F)(F)F)c3)cc2Sc2cc(C=O)ccc21 = 529
• COc1ccc(-c2ccc(-c3c4c(nc5ccccc35)-c3cc5c(cc3CC4)-c3nc4ccccc4c(-c4ccc(-c6ccc(OC)cc6)cc4)c3CC5)cc2)cc1 = 388
• CCCCCCOc1ccc(-c2cnc(-c3nnc(-c4ccc(OCCCCCC)cc4)o3)o2)cc1 = 390
• CC(C)C[Si](C#Cc1c2c(=O)c3ccccc3c2c(C#C[Si](CC(C)C)(CC(C)C)CC(C)C)c2c(=O)c3ccccc3c12)(CC(C)C)CC(C)C = 567
• CC1=[N+]2C(=C(c3ccc(N4CCOCC4)cc3)c3ccc(C)n3[B-]2(F)F)C=C1 = 531
• CCN(CC)c1ccc2cc(-c3cn4cc(OC)ccc4n3)c(=O)oc2c1 = 478
• Cc1nc2c(ccc3c2sc(/C=C/c2ccc(-n4c5ccccc5c5ccccc54)cc2)[n+]3C)s1 = 638
• CC(C)c1cccc(C(C)C)c1-n1c(=O)c2cc3nc(-c4ccccc4)c4cc5c(=O)n(-c6c(C(C)C)cccc6C(C)C)c(=O)c6cc7nc(-c8ccccc8)c8cc(c1=O)c2c1c3c4c(c65)c7c81 = 502
• CCCCCCN1C(=O)c2cc(-c3ccc(-n4c5ccccc5c5ccccc54)cc3)c(-c3ccc(-n4c5ccccc5c5ccccc54)cc3)cc2C1=O = 548
• COc1ccc(-n2c3ccccc3c3cc(C=C(C#N)C#N)ccc32)cc1 = 511
• F[B-]1(F)OC(c2ccccc2)=Cc2ccc3ccccc3[n+]21 = 438
• Cc1cc(C)c(C2=C3C=CC=[N+]3[B-]3(c4ccccc4)Oc4cc(O)cc5c6ccc(C)cc6c6cc2n3c6c45)c(C)c1 (centres undefined) = 669
• COc1ccc(C2=CC(c3ccccc3)=[N+]3C2=Nc2c(-c4ccc(OC)cc4)cc(-c4ccccc4)n2[B-]3(F)F)cc1 = 695
• Cc1ccc2c(c1)c(C#N)c(C#N)c1cc(C)ccc12 = 396
• c1ccc(-c2nc(-c3ccc(-c4nc(-c5ccccc5)c(-c5ccccc5)[nH]4)cc3)[nH]c2-c2ccccc2)cc1 = 437
• CN(C)CCN(Cc1c2ccccc2c(CN(CCN(C)C)c2ccc([N+](=O)[O-])cc2[N+](=O)[O-])c2ccccc12)c1ccc([N+](=O)[O-])cc1[N+](=O)[O-] = 417
• CN(C)c1ccc(/C=C2\CC/C(=C\c3ccc(C#N)cc3)C2=O)cc1 = 603
• F[Si](c1c2ccccc2cc2ccccc12)(c1c2ccccc2cc2ccccc12)c1c2ccccc2cc2ccccc12 = 434
• CCCCn1c(=O)c2cc3ccc4cccc5ccc(c2c1=O)c3c45 = 460
• CCOC(=O)c1ccccc1-c1c2ccc(=[N+](CC)CC)cc-2oc2c1c(=O)oc1cc3c(cc12)CCCN3C = 647
• CC1(C)[C@@H]2CC[C@]1(C)c1nc3cc(-c4cccs4)ccc3nc12 = 415
• Fc1ccc(-c2cc3ccc4cc(-c5ccc(F)cc5)cc5ccc(c2)c3c45)cc1 = 410.54
• COc1cc(-c2cc(-c3ccc(C)cc3)nc3c(C#N)c(N4CCCC4)nc(N)c23)cc(OC)c1OC = 509
